Measured values drawn from paper PMC10615877 for this set.

Tested on: thioredoxin reductase (TrxR)
Settings: 100 µM
This listing pairs molecules with measured inhibition.
observable: inhibition (%)

# molecule, observable, readoutNumber
rows = [
    ("N.N.[Cl][Pt][Cl] [cisplatin]", "inhibition", 26.4),
    ("CC(=O)OC[C@H]1O[C@@H]([S-])[C@H](OC(C)=O)[C@@H](OC(C)=O)[C@@H]1OC(C)=O.CCP(CC)CC.[Au+]", "inhibition", 100),
    ("N.N.[Cl-].[Cl-].[OH-].[OH-].[Pt+4] [oxo-cisplatin, [Pt(NH3)2Cl2(OH)2]]", "inhibition", 66),
    ("O=C1[O][Pt]2([NH][C@@H]3CCCC[C@H]3[NH]2)[O]C1=O", "inhibition", 29.7),
]
